Taken from the RNAGym collection of RNA variant scans (doi:10.1021/acssynbio.7b00057).

B1: Pistol ribozyme (parent)
chain: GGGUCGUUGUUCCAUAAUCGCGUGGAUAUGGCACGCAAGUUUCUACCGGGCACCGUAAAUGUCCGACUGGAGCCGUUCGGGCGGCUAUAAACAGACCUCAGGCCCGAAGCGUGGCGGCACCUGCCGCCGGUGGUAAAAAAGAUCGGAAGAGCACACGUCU

- Variants of: B1
- Assay protocol: aptazyme ON/OFF ratio, guanine; higher = stronger switching; co-transcriptional cleavage with and without guanine
Can you tell me aptazyme ON/OFF ratio for the items I'm about to list?

Here's what some known entries look like.
The measured aptazyme ON/OFF ratio associated with U7A U8A G9A U10A U11C C12U C13G reads 1.08

Lab note: measured aptazyme ON/OFF ratio of U7A U8C G9U U10C U11G C12A C13A was 1.13

Field aptazyme ON/OFF ratio (entry U7C U8C G9U C12A ) reads 1.36

Kindly note the recorded aptazyme ON/OFF ratio for U7A U8C G9C U10A U11A C12A C13G , which is 1.08

aptazyme ON/OFF ratio recorded for this variant, U7A U8C U10G U11C C12U C13G , is 1.29

Required: aptazyme ON/OFF ratio, one value per variant below.
1. U7A U8G G9C U10A U11C C12G C13A
2. U7G G9C U11G C12A
3. U7A U8C G9C U10G U11C C12A C13U
4. U7A U8C G9U U10G U11C
5. U7A U8A G9U U10A C13G
6. U7G U8G U10A U11C C12A C13U

Given back:
1.27
1.41
1.09
1.03
1.08
1.47

Noted for U7C U8A U11A C12A C13A : its aptazyme ON/OFF ratio reads 1.12
